- experimental_system: T1, GST-KIAA0559 PDZ domain fusion protein (KIAA0559 AA766-870; PDZ1 of 1) (UniProt P08515 1-218 = GST)
- T1 construct: also called K559
- T1 sequence (P08515 1-218, tags or fused parts left off): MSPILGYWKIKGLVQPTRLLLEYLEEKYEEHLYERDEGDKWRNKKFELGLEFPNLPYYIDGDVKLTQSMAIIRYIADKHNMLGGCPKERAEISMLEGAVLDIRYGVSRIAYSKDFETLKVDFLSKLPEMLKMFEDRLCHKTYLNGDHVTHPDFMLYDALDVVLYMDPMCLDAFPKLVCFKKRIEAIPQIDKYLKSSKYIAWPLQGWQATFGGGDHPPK
- experiment_description: A/G assays
Ends that are not written are not given here. * marks the point of attachment. Biotin = O=C1N[C@H]2[C@H](CS[C@H]2CCCCC(=O)*)N1

| binder | binding result |
| --- | --- |
| Biotin-KKGTYLTDETHREVKFTSL [CD46 (form 1) C-terminal PL peptide AA10L, biotinylated] | no binding |
| Biotin-LERTSSVSPSTAEPELSIVF [CC CKR-3 C-terminal PL peptide AA43L, biotinylated] | no binding |
| Biotin-LERVSSTSPSTGEHELSAGF [CC CKR-1R C-terminal PL peptide AA41L, biotinylated] | no binding |
